Entry source: paper PMC6358605

- study-system: biotinylated AviTag-BiP^19–413 (NBD), G3I8R9
- Sequence (G3I8R9 19-413): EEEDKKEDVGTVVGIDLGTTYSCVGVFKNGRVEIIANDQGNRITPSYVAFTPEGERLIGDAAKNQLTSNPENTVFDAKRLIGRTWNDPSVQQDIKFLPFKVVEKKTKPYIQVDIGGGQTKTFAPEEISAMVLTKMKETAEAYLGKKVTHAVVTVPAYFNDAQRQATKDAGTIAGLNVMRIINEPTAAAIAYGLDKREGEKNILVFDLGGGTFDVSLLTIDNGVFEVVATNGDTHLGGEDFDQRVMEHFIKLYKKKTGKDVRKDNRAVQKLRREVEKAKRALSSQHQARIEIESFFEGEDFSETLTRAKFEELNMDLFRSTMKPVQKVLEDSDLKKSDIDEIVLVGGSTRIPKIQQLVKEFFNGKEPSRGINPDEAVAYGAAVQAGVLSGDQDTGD
- test-protocol: BLI
- details: chain shown with the change; 100 µM MANF; equilibrium signal; parent: est. 0.78; read off a plot
measure-name: response (nm)
Express your answer in nm, writing the number without its unit.

Take a look at these entries with their results.
Full-length mouse MANF (wild-type), Q9CXI5 R23A (protein) LAPGDCEVCISYLGRFYQDLKDRDVTFSPATIEEELIKFCREARGKENRLCYYIGATDDAATKIINEVSKPLAHHIPVEKICEKLKKKDSQICELKYDNQIDLSTVDLKKLRVKELKKILDDWGEMCKGCAEKSDYIRKINELMPKYAPKAASARTDL : 0.58
Full-length mouse MANF (wild-type), Q9CXI5 E153A (protein) LRPGDCEVCISYLGRFYQDLKDRDVTFSPATIEEELIKFCREARGKENRLCYYIGATDDAATKIINEVSKPLAHHIPVEKICEKLKKKDSQICELKYDKQIDLSTVDLKKLRVKELKKILDDWGEMCKGCAAKSDYIRKINELMPKYAPKAASARTDL : 0.24
Full-length mouse MANF (wild-type), Q9CXI5 R133E (protein) LRPGDCEVCISYLGRFYQDLKDRDVTFSPATIEEELIKFCREARGKENRLCYYIGATDDAATKIINEVSKPLAHHIPVEKICEKLKKKDSQICELKYDKQIDLSTVDLKKLEVKELKKILDDWGEMCKGCAEKSDYIRKINELMPKYAPKAASARTDL : 0.13

Consider the record given below.
Please fill in: response reported for Full-length mouse MANF (wild-type), Q9CXI5 K138A (protein) LRPGDCEVCISYLGRFYQDLKDRDVTFSPATIEEELIKFCREARGKENRLCYYIGATDDAATKIINEVSKPLAHHIPVEKICEKLKKKDSQICELKYDNQIDLSTVDLKKLRVKELAKILDDWGEMCKGCAEKSDYIRKINELMPKYAPKAASARTDL = 0.42
